Reference for the values: ChEMBL document CHEMBL2021884

system: SN12C; test: Growth inhibition of human SN12C cells after 48 hrs by sulforhodamine B assay; assay type: functional
Could you please classify the records by GI50 using these ranges: category 1 (below 300 nM), category 2 (300 nM to below 6000 nM), category 3 (6000 nM or more)

>>> df
                            structure_smiles  class_name
 0  COc1cnc2c(c1)C(=O)c1c-2n(CCCN(C)C)c(=O)c2cc(OC)c(OC)cc12  category 2
 1  COc1cc2c3c(n(CCCN4CCOCC4)c(=O)c2cc1OC)-c1cnccc1C3=O  category 3
 2  COc1cc2c3c(n(CCCN(C)C)c(=O)c2cc1OC)-c1ccncc1C3=O  category 3
 3  COc1cnc2c(c1)C(=O)c1c-2n(CCCN(C)C)c(=O)c2ccccc12  category 1
 4  COc1cc2c3c(n(C)c(=O)c2cc1OC)-c1cc2c(cc1C3=O)OCO2  category 3
 5  COc1cc2c3c(n(CCCN(C)C)c(=O)c2cc1OC)-c1ncccc1C3=O  category 2
 6  COc1cnc2c(c1)C(=O)c1c-2n(CCCN(C)C)c(=O)c2cc([N+](=O)[O-])ccc12  category 1
 7  COc1cc2c3c(n(CCCN4CCOCC4)c(=O)c2cc1OC)-c1ncccc1C3=O  category 2
 8  COc1cnc2c(c1)C(=O)c1c-2n(CCCN2CCOCC2)c(=O)c2cc(OC)c(OC)cc12  category 2
 9  COc1cnc2c(c1)C(=O)c1c-2n(CCCN2CCOCC2)c(=O)c2ccccc12  category 2
10  COc1cnc2c(c1)C(=O)c1c-2n(CCCN2CCOCC2)c(=O)c2cc([N+](=O)[O-])ccc12  category 1
